- Assay Protocol: Stability of ascorbic acid-based compound (coloration)
- Assay type: physicochemical
- Design: key: ⊚: Colorless and transparent; ∘: Light yellow; Δ: Yellow; x: Brown to black
- Run Conditions: 33 wt % aqueous solution
Property: Appearance (Visual evaluation) After 7 days 50° C.

In [3]: df
Out[3]:
                                   molecule  reported
0           O=C1O[C@H]([C@@H](O)CO)C(O)=C1O         x
1  O=C1O[C@H]([C@@H](O)CO)C(O)=C1O[C@H]1O[C@H](CO)[C@@H](O)[C@H](O)[C@H]1O [Compound C99, ascorbic acid glucoside]       Δ~x
2  NC(CO)(CO)CO.O=C1OC(C(O)CO)C(O)=C1O (stereo not shown)         Δ
3  O=C1O[C@H]([C@@H](O)CO)C([O-])=C1OP(=O)([O-])[O-].[Na+].[Na+].[Na+] [Compound C100, sodium ascorbyl phosphate]       Δ~x
